All figures here come from ChEMBL document CHEMBL4513146.

The entries below are paired with their reported Inhibition.
tested on: Staphylococcus aureus; conditions: Concentration 32 ug.mL-1;; ASSAY_TEST Inhibition of Bacterial Growth; detection method Absorption (OD600); MEDIA CAMHB; plate type 384well; NBS; CORNING #3640; time 18 hr
Description: Antibacterial activity against Staphylococcus aureus MRSA ATCC 43300 (CO-ADD:GP_020); MIC in CAMBH media, using NBS plates, by OD(600)
Potency and affinity values are given separately.
Note: unit % is implicit; provide only the numeric part.

Use the examples below as a reference point.
For record `COc1cccc(-n2ccn3c(SCC(=O)c4cc(C)ccc4C)nnc3c2=O)c1` the listed Inhibition is 11.66

For record `CSc1cccc(NC(=O)Cn2nc3ccc(C(=O)NCc4ccccc4)cn3c2=O)c1` the listed Inhibition is 5.85

For record `O=C(Cn1nc2ccc(-c3ccc(Cl)cc3)nn2c1=O)N1CCN(c2ccc(F)cc2)CC1` the listed Inhibition is 4.1

For record `CCc1nnc2c(SCC(=O)Nc3cccc(Br)c3)nc3ccccc3n12` the listed Inhibition is 1.73

For record `CCc1ccc(N(Cc2ccccc2)S(=O)(=O)c2cccn3cnnc23)cc1` the listed Inhibition is 5.64

More entries:
For record `Cc1ccc(-n2ccn3c(SCC(=O)N4CCN(c5ccc(F)cc5)CC4)nnc3c2=O)cc1C` the listed Inhibition is 15.71

For record `O=C(Cn1nc2c(Sc3cccc(F)c3)nccn2c1=O)Nc1ccc(Br)cc1` the listed Inhibition is 3

For record `Cc1ccc(C)c(NC(=O)Cn2nc3ccc(-c4ccc(C)c(C)c4)nn3c2=O)c1` the listed Inhibition is -1.85

For record `COc1ccc(NC(=O)Cn2nc3c4cc(-c5cc(C)ccc5C)nn4ccn3c2=O)c(OC)c1` the listed Inhibition is 3.39

For record `Cc1ccc(Oc2nccn3c(=O)n(CC(=O)Nc4ccc(Br)cc4)nc23)cc1` the listed Inhibition is 6.95

For record `Cc1ccc(-c2cc3c4nnc(SCC(=O)Nc5ccc(C#N)cc5)n4ccn3n2)cc1` the listed Inhibition is -4.94

For record `Cc1ccc(Cl)cc1NC(=O)CSc1nc2ccccc2n2c(C)nnc12` the listed Inhibition is -8.21

---

The entries below are paired with their reported Inhibition.
system: Escherichia coli; settings: Concentration 32 ug.mL-1;; ASSAY_TEST Inhibition of Bacterial Growth; detection method Absorption (OD600); MEDIA CAMHB; plate type 384well; NBS; CORNING #3640; time 18 hr
Description: Antibacterial activity against Escherichia coli ATCC 25922 (CO-ADD:GN_001); MIC in CAMBH media using NBS plates, by OD(600)
Measured potencies and affinities stand elsewhere.
Note: unit % is implicit; provide only the numeric part.

Use the examples below as a reference point.
For record `Cc1nnc2ccc(S(=O)(=O)N(Cc3ccc(Cl)cc3)c3cccc(F)c3)cn12` the listed Inhibition is -4.46

For record `COC(=O)c1ccc(CN(c2ccc(F)cc2)S(=O)(=O)c2cccn3c(C)nnc23)o1` the listed Inhibition is -1.28

For record `COC(=O)c1ccc(NC(=O)Cn2nc3ccc(Sc4ccc(C)cc4)nn3c2=O)cc1` the listed Inhibition is -1.06

For record `Cc1ccc(CN(c2ccc(C(C)C)cc2)S(=O)(=O)c2cccn3cnnc23)cc1` the listed Inhibition is 4.59

For record `COc1ccc(NC(=O)Cn2nc3ccc(-c4ccc(Cl)cc4)nn3c2=O)cc1OC` the listed Inhibition is -4.63

More entries:
For record `Cc1cccc(NC(=O)Cn2nc3ccc(-c4ccc(C)c(C)c4)nn3c2=O)c1` the listed Inhibition is -14.87

For record `COc1ccccc1N1CCN(C(=O)Cn2nc3c(Sc4cccc(C)c4)nccn3c2=O)CC1` the listed Inhibition is -4.78

For record `COc1cccc(CN(c2cccc(C)c2)S(=O)(=O)c2ccc3nnc(C)n3c2)c1` the listed Inhibition is -6.19

For record `Cc1cc(C)cc(Nc2nc(C)cc3nn(CC(=O)Nc4cc(F)ccc4F)c(=O)n23)c1` the listed Inhibition is 0.49

For record `Cc1ccc(NC(=O)CSc2nnc3ccc(C(=O)Nc4cccc(F)c4)cn23)c(C)c1` the listed Inhibition is -1.6

For record `Cc1ccc(-c2cc3c4nn(CC(=O)Nc5ccc(C)c(Cl)c5)c(=O)n4ccn3n2)cc1C` the listed Inhibition is -1.24

For record `Cc1cccc(N(CC(=O)OC(C)(C)C)S(=O)(=O)c2cccn3c(C)nnc23)c1` the listed Inhibition is -7.68

For record `COc1cccc(-n2ccn3c(-c4ccc([N+](=O)[O-])cc4)nnc3c2=O)c1` the listed Inhibition is -8.12

For record `Cc1ccc(-c2ccc3nn(CC(=O)N4CCN(c5ccccc5)CC4)c(=O)n3n2)cc1C` the listed Inhibition is 2.66

For record `COc1ccccc1-n1ccn2c(SCc3cc(C)ccc3C)nnc2c1=O` the listed Inhibition is -5.03

For record `CCc1nnc2c(S(=O)(=O)N(Cc3cc(F)cc(F)c3)c3ccc(C)cc3)cccn12` the listed Inhibition is -5.17

For record `COc1ccccc1-n1ccn2c(SCC(=O)Nc3ccc(C)cc3Cl)nnc2c1=O` the listed Inhibition is -9.42

For record `Cc1nnc2c(S(=O)(=O)N(Cc3cccc(F)c3)c3ccc(C(C)C)cc3)cccn12` the listed Inhibition is -0.86

For record `Cc1[nH]c2ccccc2c1C(=O)CSc1nnc2c(=O)n(-c3ccc(Br)cc3)ccn12` the listed Inhibition is -11.28

For record `O=c1c2nn(Cc3cccc([N+](=O)[O-])c3)c(=O)n2ccn1-c1ccccc1` the listed Inhibition is -2.06

For record `O=S(=O)(c1ccc2nncn2c1)N(Cc1cc(F)cc(F)c1)c1ccccc1` the listed Inhibition is -13.22

For record `Cc1nnc2ccc(S(=O)(=O)N(Cc3cccc(F)c3)c3ccc(F)cc3)cn12` the listed Inhibition is -11.39

For record `CCOc1ccc(N(Cc2cccc(F)c2)S(=O)(=O)c2ccc3nncn3c2)cc1` the listed Inhibition is -7.52

For record `CSc1ccc(CNC(=O)CCc2nnc3c(N4CCCCC4)nc4ccccc4n23)cc1` the listed Inhibition is 2

For record `Cc1c(Cl)cccc1-n1ccn2c(=O)n(Cc3cccc(F)c3)nc2c1=O` the listed Inhibition is -6.71

For record `CSc1cccc(NC(=O)Cn2nc3c(Sc4ccc(C)cc4C)nccn3c2=O)c1` the listed Inhibition is -16.34

For record `CCOc1ccc(NC(=O)Cn2nc3ccc(-c4ccccc4)nn3c2=O)cc1` the listed Inhibition is -5.9

For record `O=c1n(Cc2nc(-c3ccc(Br)cc3)no2)nc2ccc(-c3ccccc3)nn12` the listed Inhibition is -5.77

For record `COC(=O)c1ccc(NC(=O)Cn2nc3nc(N4CCCCCC4)ccn3c2=O)cc1` the listed Inhibition is -2.48
